Each recorded value in this set is attributed to patent US10517889B2.

Levels of TNF-α values for the substances below.
- Test system: human peripheral blood mononuclear cells (PBMCs)
- ASSAY EXPLANATION: Human PBMC activation assay, cytokine levels (IL-10, IL-6, MCP-1, TNF-α) in supernatant after 24 hours (Example 9)
- TEST CONDITIONS: human PBMC supernatant after 24 hours; 200 μM oligonucleotide
MEASURE NAME: Levels of TNF-α (pg/mL)

# SUBSTANCE, MEASURE NAME, UNIT, RECORDED VALUE
measured = [
    ("830037 (antisense CTATTGGCTGATCTGG; 3-10-3 cEt gapmer, further chemistry not given here) [compound 830037]", "Levels of TNF-α", "pg/mL", 18.9),
    ("830121 (AGAATCAAGCCCTGGC; 3-10-3 cEt gapmer, further chemistry not given here) [compound 830121]", "Levels of TNF-α", "pg/mL", 14.2),
    ("736697 (antisense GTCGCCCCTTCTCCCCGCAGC; chemistry not fully specified) [compound 736697]", "Levels of TNF-α", "pg/mL", 43.7),
    ("830025 (antisense TTTGTAAATCGAAAGC; 3-10-3 cEt gapmer, further chemistry not given here) [compound 830025]", "Levels of TNF-α", "pg/mL", 4.9),
    ("798781 (CGTAAGATTCACAGCA; 3-10-3 cEt gapmer, further chemistry not given here) [compound 798781]", "Levels of TNF-α", "pg/mL", 4.0),
    ("829994 (GGAGGCAGGGCCGCGA; 3-10-3 cEt gapmer, further chemistry not given here) [compound 829994]", "Levels of TNF-α", "pg/mL", 28.6),
    ("790615 (CCAATGAGAATGCTTC; 3-10-3 cEt gapmer, further chemistry not given here) [compound 790615]", "Levels of TNF-α", "pg/mL", 4.8),
]

###

% Inhibition values for the substances below.
- System: human SMAD7 mRNA
- ASSAY EXPLANATION: Antisense inhibition of human SMAD7 mRNA expression in Hep3B cells by 3-10-3 cEt gapmers, 10,000 nM, electroporation (Example 2)
- Assay type: cell-based
- TEST CONDITIONS: SMAD7 mRNA, Hep3B cells, 10,000 nM antisense oligonucleotide, electroporation, approximately 24 hours, primer probe set RTS5062, relative to untreated control cells
- Protocol: Antisense oligonucleotides were designed to target human SMAD7 mRNA and were tested for their effects on SMAD7 mRNA expression in vitro. […] After a treatment period of approximately 24 hours, RNA was isolated from the cells and SMAD7 mRNA levels were measured by quantitative real-time PCR. […] SMAD7 mRNA levels were adjusted according to total RNA content, as measured by RIBOGREEN®. […]
Strand notation (5' to 3'): a small letter for the sugar, then the base; units joined by * are phosphorothioate-linked, units joined directly phosphodiester-linked; [ ] holds rarer units or linkages, { } end groups; capitals alone tell only the bases. k = constrained ethyl (cEt); [5mC] = 5-methylcytosine; d = 2'-deoxy (DNA)
MEASURE NAME: % Inhibition

# SUBSTANCE, RECORDED VALUE
records = [
    ("790696 (k[5mC]*kA*kA*dA*dG*dG*dT*dA*dA*dG*d[5mC]*d[5mC]*dA*kG*k[5mC]*kT; antisense) [compound 790696]", "41%"),
    ("790484 (kG*kA*kA*d[5mC]*dA*d[5mC]*dT*dT*dT*dG*d[5mC]*dA*d[5mC]*kA*kG*k[5mC]; antisense) [compound 790484]", "62%"),
    ("772593 (kA*k[5mC]*kG*d[5mC]*dA*d[5mC]*d[5mC]*dA*dG*dT*dG*dT*dG*kA*k[5mC]*k[5mC]; antisense) [compound 772593]", "42%"),
]
